Assay: yeast display, Sf9 membrane polyspecificity reagent, FACS + sequencing; frameworks hold sequencing errors
property name: polyreactivity (PSR sort gate)

seq_text=QVQLVESGGGLVQAGGSLRLSCAASGGTFWYNAMGLYRQAPGKERELVANIRRSGGRTNYADSVKGRFTISRDNAKNTVYLHMNSLKPEDTAVYYCAARVTPYRGFYYWGQGTQVTVSS result="high polyreactivity"
seq_text=QVQLVESGGGLVQAGGSLRLSCAASGFIFRWYAMGWYRQAPWKERELVASINTDGDSTYYADSVKGRFTISRDNAKNTVYLQMNSLKPEDTAVYYCAADYVGYWWYTSDNYDYWGQGTQVTVSS result="high polyreactivity"

====

Assay: yeast display, Sf9 membrane polyspecificity reagent, FACS + sequencing; frameworks hold sequencing errors
property name: polyreactivity (PSR sort gate)

Known polyreactivity (PSR sort gate) results, listed for orientation:
seq_text=QVQLVESGGGLVQAGGSLRLSCAASGSIFVYNAMGWYRQAPGKERELVASITWSGGRTYYADSVKGRFTISRDNAKNTVYLQMNSLKPEDTAVYYCNVRQGGPTVTWEYDYWGQGTQVTVSS result="high polyreactivity"
seq_text=QVQLVESGGGLVQAGGSLRLSCAASGSIDWNAMGWYRQAPGKEREFVAAISSSGGRTSYADSVKGRFTISRDNAKNTVYLQMNSLKPEDTAVYYCAAAGSYDGDRYYYWGQGTQVTVSS result="high polyreactivity"
seq_text=QVQLVESGGGLVQAGGSLRLSCAASGSTFGWYTMGWYRQAPGKERELVAAITSRGTRTSYADSVKGRFTISRDNAKNTVYLQMNSLKPEDTAVYYCAARVFRGLGEYYWGQGTQVTVSS result="high polyreactivity"
seq_text=QVQLVDSGGGLVQAGGSLRLSCAASGRIFHVYAMGWYRKAPGKERELLADITWSGGSTYYADSVKGRFTISRDNAKNTVYLQMNSLKPEDTAVYYCAAAYYGYARWRGPRKMDYWGQGTQVTVSS result="high polyreactivity"
seq_text=QVQLVESGGGLVHAGGSLRLSCAASGFTFDSNDKGWYRQAPGKERELVAAISTGGSTYYADSVKGRFTISRDNAKNTVYLQMNRLKPEDTAVYYCARDPPYPDTWYGYWGQGSQVTVSS result="low polyreactivity"
seq_text=QVQLVESGGGLVQAGGSLRLSCAASGSNFSRYAMGWYTQAPGKERELVAAISKSGGSTYYADSVKGRFTISRDNAKNTVYLEMNSLIPEDTAVYYCNARDSPVQRRAEPYGYWGQGTQVTVSS result="high polyreactivity"

The reported polyreactivity (PSR sort gate) of the sequence QVQLVESGGGLVQAGGSLRLSCAASGRIFTYNAMGWYRQAPGKERELVASINLDGDSTYYADSVKGRFTISRDNAKKTVYLQMNSLKTEETAVYYCAVPGATSYFAYDSWGQGTQVTVSS was low polyreactivity

Entry under test: QVQLVESGGGLVQAGGSLSLSCAASGSTFYYNAMGWYRQAPGKEREFVAAINWRGGSTYYADSVKGRFTISRDNAKNTVYLQMNSLKPEDTAVYYCSAEEASTYYYVRSGYDYHFWEMYSWGQGTQVTVSS . Its polyreactivity (PSR sort gate) was low polyreactivity

Field polyreactivity (PSR sort gate) (entry QVQLVESGGGLVQAGGSLRLSCAASGRTFYYYAMGWYRQAPGKEWELVAAIRGGGGSTYADSVKGRFTISRDNAKNTVYLQMNSLKPEDTAVYYCNVVRTGRYPGFLTFDYWGQGTQVTVSS ) reads high polyreactivity

Record summary for QVQLVESGGGLVQAGGSLRLSCAASGFTFASNVMGWYRQAPGKERELVAAITSGASTNYADSVKGRFTISRDNAKNTVYLQMNSLKPEDTAVYYCAAGRQWYVFYEFDYWGQGTQVTVSS : reported polyreactivity (PSR sort gate) = high polyreactivity

Field polyreactivity (PSR sort gate) (entry QLQLVESGGGLVQAGGSLRLICAASGLTFVHYTMGWYRQAPGKERELVAAISWNGASTYYADSVKGRFTISRDNAKNTVDIQMNSLKPEDTAVYYCAAGYAQPRYYTDYYWGEGTQVTVSS ) reads high polyreactivity

====

Experiment: yeast display, Sf9 membrane polyspecificity reagent, FACS + sequencing; frameworks hold sequencing errors
property name: polyreactivity (PSR sort gate)

Some solved cases for reference:
seq_text=QVQLEESGGGLVQAGGSLRLSCAASGRTFSSYAMVWYRQAPGKERELVAAINSGGSTNYADSVKGRFTISRDNAKNTVYLQMNSLKPEDTAVYYCNAVTFWGLGYDYWGQGTQVTVSS property_name="polyreactivity (PSR sort gate)" result="low polyreactivity"
seq_text=QVQLVESGGGLVQAGGSLRLSCAASGRIFGRNTMGWYRQAPGKERELVASITFGGVSTYYADSVKGRFTISRDNAKNTVYLQMNSLKPEDTAVYYCAAVLINYEGYDSWGQGTQVTVSS property_name="polyreactivity (PSR sort gate)" result="low polyreactivity"
seq_text=QVQLVESGGGLVQAGGSLRLTCAASGSIFYPYAMGWYRQAPGKERELVAAISWSGGSTYYADSVKGRFTISRDNAKNTVYLQMKSLKPEDTAVYYCNAVGHWFYSSGRYYGDDYWGQGTQVTVSS property_name="polyreactivity (PSR sort gate)" result="high polyreactivity"
seq_text=QVQLVESGGGLVQAGGSLRLSCSASGFTFRTYAMGWYRQAPGKETELVAAISRDGSSTYYADSVKGRFTISRDNAKNTVYLQLKSLKPEDTAVYYCAARIIRFYTSADKLVTSRYYYWGQGTQVTVSS property_name="polyreactivity (PSR sort gate)" result="high polyreactivity"

Turning to the following sequence.
GET /value?item= QVQLVESGGGLVQAGGSLRLSCAASGSIFSDYAMGWYRQAPGKERELVAAITQSGGSTYADSVKGRFTISRDNAKNTVYLQMNSLKPEDTAVYYCAADEVPGFGYPPYPWFDYWGQGTQVTVSS &field=polyreactivity (PSR sort gate) returns low polyreactivity

====

Experiment: yeast display, Sf9 membrane polyspecificity reagent, FACS + sequencing; frameworks hold sequencing errors
property name: polyreactivity (PSR sort gate)

seq_text=QDQLVESRGGLVQAGGSLRLTCAASGSTFVIYDMGWYSQATGKERELVAVITIIGGSTYYADSVKGRFTISRDNAKNTVYLQMNSLKPEDTAVYYCNANVIQDYPNYDYWGQGTQVSVSS result="low polyreactivity"
seq_text=QVQLVESGGGLVQAGGSLRLSCAASGSTFDINAMGWYRQAPGKERELVAAINWSGDSTYYADSVKGRFTISRDTAKNTVYLQMNSLKPEDTAVYYCNADTIVAWFDIFEEMDSWGQGTQVTVSS result="low polyreactivity"
seq_text=QVQLVESGGGLVQAGGSLRLSCAASGSTFPRNAMGWYRQAPGKEWELVAAISGRGVRTYYADSVKGRFTISSDNAKNTVNFQMYSLKPEDTAVYYCAASRGKGVGLAYDYWGQGTQVTVSS result="high polyreactivity"
seq_text=QVQLVESGGGLVQAGGSLRLSCAASGSTFYSNAMGWYRQAPGKERELVAGISGSGGSSYYADSVKGRFTFSRDNAKNTVKLQMNSLKPEDTAVYYCNARKTRSYFRFDSWGQGTQVTVSS result="low polyreactivity"
seq_text=QVQLVESGGGLVQAGGSLRLSCAASGSIFSNYAMGWYRQAPGKERELVAAISRNGGSTSYADSVKGRFTISRDNAKNTVYLQMNSLKPEDTAVYYCAAVYVTGSYRYGYWGQGTQVTVSS result="high polyreactivity"
seq_text=QVQLVESGGGLVQAGGSLRLSCAASGIIFSSYAMGWYRQAPGKERELVAAITYNGGRTYYADSVKGRFTISRDNAKNTVYLQMNSVKPEDTAVYYCAAERYPYGVTYSKLDYWGQGTQVTVSS result="high polyreactivity"
seq_text=QVQLVESGGGLVQAGGSLRLSCAASGSTLRPYGMGWYRQAPGKERELVATIRSSSGRTYYADSVKGRFTISRDNAKNTVYLQMNSLKPEDTAVYYCARRYITNIKYDYWGQGTQVTVSS result="high polyreactivity"
seq_text=QVQLVESGGGLVKAGGSLRLSCAASGRIIEKYAMGWYRQAHGKEREFVAAIDWSGGSTYYADSVKGRFTISRDNAKNTVSLQKNSLKPEDTAVYYCAAYWYYEDGQSEARLYGYDYWGQGTQVTVSS result="low polyreactivity"
seq_text=QVHLVESGGGLVQAGGSLRLSCAASGSTLVYNDMGWYRQAPGKEREFVAAIRSNDGSTYYADSVKGRFTISRDNAKNTVYLQMNSLKPEDTAVYYCAAERGYPKFGYWGQGTQVTVSS result="low polyreactivity"
seq_text=QVQLVESGGGLVQAGGSLRISCAASGFTFSYNAMGWYRQAPGKERELVAGINVSSGGDTYADSVKGRFTISRDNAKNTVYLQMNSLKPEDTAVYYCAKDHYGDDTYGTPYDYDYWGQGTQVTVSS result="low polyreactivity"

Proceeding to the next sequence to report its polyreactivity (PSR sort gate).
Entry QVQLVESGGGLVQAGGSLRLSCAASGRTFARYAKGWYRQAPGKERELVAVISRTGSTYYADSVKGRFTISRDNAKNTVYLQMNSLKPEDTAVYYCATVYYYLAYGWSYSDMDYWGQGTQVTVSS ; polyreactivity (PSR sort gate) = high polyreactivity

The reported measurements were obtained from the nanobody polyreactivity screen of Harvey et al. (2022).
